Read-out: Monocyte Chemoattractant Protein-1 (MCP1), CCL2 (gene 6347)
assaySummary: BSK_4H_MCP1: BioMAP Diversity Plus: 4H Assay for Monocyte Chemoattractant Protein-1 (MCP1) Biomarker Activity (AID 2283018)
runParameters: primary human endothelial cells (HUVEC); actives raise or lower the signal
Experimental: BSK_4H is a cell-based, multiplexed-readout assay that uses umbilical vein endothelium, a human vascular primary cell, with measurements taken at 24 hours after chemical dosing in a 96-well plate.BSK_4H_MCP1 is an assay component measured in the BSK_4H assay. It measures MCP-1 antibody related to regulation of gene expression using ELISA technology.Data from the assay component BSK_4H_MCP1 was analyzed into 1 assay endpoint. […]
The source made the active and inactive calls. Rule for the calls: active = hit-call score of the fitted dose curve at least 0.9, where 1 is the maximum; inactive = score below 0.9.
Your reply should match one of these outcome classes. 1 for active, -1 for inactive

Solved cases below.
NC(=O)CCl | -1
CC(C=O)Cc1ccc2c(c1)OCO2 (stereo not drawn) | -1
Oc1ccc(Cc2ccc(O)cc2)cc1 | -1

Which result was noted for this molecule in the test: Oc1c(Cl)cc(Cl)cc1Cl
-1

And CCN(CC)C(=O)C(Cl)=C(C)OP(=O)(OC)OC ?
-1

And CCC(C)(C#N)N=NC(C)(C#N)CC (stereo not drawn) ?
-1

And O=C(Cc1ccccc1)OCCc1ccccc1 ?
-1

And Nc1c(Oc2ccccc2)cc(O)c2c1C(=O)c1ccccc1C2=O ?
-1

And CC(C)N(C(=O)CCl)c1ccccc1 ?
1

And CCOP(=O)(OCC)OC(=CCl)c1ccc(Cl)cc1Cl ?
1

And Cc1cccc(OP(=O)(Oc2cccc(C)c2)Oc2cccc(C)c2)c1 ?
-1

And O=C(CCl)NCO ?
-1

And CCOP(=S)(OCC)OP(=S)(OCC)OCC ?
1

And Cc1cc(Cl)ccc1OC(C)C(=O)O (stereo not drawn) ?
-1

And O=[N+]([O-])c1ccc(Nc2ccccc2)cc1 ?
1

And Oc1cccc(-c2ccccc2)c1 ?
1

----------
assaySummary: ATG_Oct_MLP_CIS: Attagene CIS-FACTORIAL HepG2 Assay for human Octamer-Binding Transcription Factor (Oct) (AID 2282993)
runParameters: HepG2 Attagene cis-factorial Oct reporter, mRNA; actives raise or lower the signal
The source made the active and inactive calls. How the source made its calls: active means hit-call score of the fitted dose curve at least 0.9, where 1 is the maximum; inactive means score below 0.9.
Your reply should match one of these outcome classes. label 1 for active, label 0 for inactive

Which result was noted for this molecule in the test: O=C(O)C1(c2ccc3c(c2)OC[C@H](Cc2ccc(-c4ccccc4)cc2)[C@H]3O)CCCC1
label 0

And C1CN2CCN1CC2 ?
label 0

And CC(O)(CS(=O)(=O)c1ccc(F)cc1)C(=O)Nc1ccc(C#N)c(C(F)(F)F)c1 (stereo not drawn) ?
label 1

----------
assaySummary: ATG_XTT_Cytotoxicity: Cytotoxicity Assessment in the Attagene TRANS-FACTORIAL HepG2 Assay (AID 2283584)
Inconclusive results are not listed. Active and inactive are the calls of the source. How the source made its calls: active means hit-call score of the fitted dose curve at least 0.9, where 1 is the maximum; inconclusive means response in the unintended direction; inactive means score below 0.9.
Your reply should match one of these outcome classes. active, inactive

CCCSP(=S)(OCC)Oc1ccc(SC)cc1 (stereo not drawn) | inactive
CC(C)(C#N)N=NC(C)(C)C#N | inactive

Which result was noted for this compound in the test: CCOC(=O)CC(=O)CCl
inactive

And O=C(CCl)Nc1ccccc1 ?
inactive

And CC(C)(c1ccc(O)c(-c2ccccc2)c1)c1ccc(O)c(-c2ccccc2)c1 ?
active

And CCOc1cc(C=O)ccc1O ?
inactive

And ClCCCCl ?
inactive

And CCN(CC)C(=O)C(Cl)=C(C)OP(=O)(OC)OC ?
inactive

And CN(C1CCCCC1)C1CCCCC1 ?
inactive

And CN(C)c1ccc(N=O)cc1 ?
inactive

And Cc1ccccc1OP(=O)(Oc1ccccc1)Oc1ccccc1 ?
inactive

And CS(=O)(=O)c1ccc(C(=O)C2C(=O)CCCC2=O)c(Cl)c1COCC(F)(F)F ?
inactive

And CCOC(=O)OC1=C(c2cc(C)ccc2C)C(=O)NC12CCC(OC)CC2 (stereo not drawn) ?
inactive
